The entries below pair compounds with pIC50 values for Ribosomal protein S6 kinase alpha-3 (Homo sapiens, UniProt P51812), as found in several publications.
pIC50: −log10 of the molar value.

{"columns": ["compound", "resultModifier", "pIC50"],
 "data": [
  ["CC1CCNC(=O)c2cc3ccc(C(=O)Nc4cnn(Cc5ccccc5)c4)nc3n21 (centres unmarked)", "=", 9.41],
  ["C[C@@H]1C(=O)N(c2cccc(C(F)(F)F)c2)c2cnc(Nc3ccc4[nH]ncc4c3)nc2N1C1CCCCC1", "≥", 7.00],
  ["CN(C)CCNC(=O)N1Cc2nc(Nc3ccccc3)ncc2C1(C)C", "=", 5.41],
  ["COc1ccc(N2C(=O)[C@@H](C)N(C3CCCCC3)c3nc(Nc4ccc5[nH]ncc5c4)ncc32)cn1", "≥", 7.00],
  ["C[C@@H]1C(=O)N(c2cccc(CO)c2)c2cnc(Nc3ccc4[nH]ncc4c3)nc2N1C1CCCCC1", "≥", 7.00],
  ["CN(C)[C@@H]1CCCC[C@H]1NC(=O)N1Cc2nc(Nc3ccccc3)ncc2C1(C)C", "=", 5.09],
  ["CCn1c(NC(=O)c2ccc3cc4n(c3n2)[C@H](C)CNC4=O)nc2ccccc21", "=", 7.58],
  ["O=C(Nc1ccc(Cl)cc1)c1ccc2cc3n(c2c1)CCCNC3=O", "=", 6.72]
]}

----------
The entries below pair compounds with IC50 values for Ribosomal protein S6 kinase alpha-3 (Homo sapiens, UniProt P51812), as found in several publications.
measurementLabel: IC50

{"columns": ["compound", "targetSystem", "measurementLabel", "testValue"],
 "data": [
  ["Cc1ccc(N2C(=O)[C@@H](C)N(C3CCCCC3)c3nc(Nc4ccc5[nH]ncc5c4)ncc32)cc1F", "Ribosomal protein S6 kinase alpha-3 (Homo sapiens, UniProt P51812)", "IC50", "≤ 100 nM"],
  ["Cn1ncc2cc(NC(=O)c3ccc4cc5n(c4c3)CCCNC5=O)cnc21", "Ribosomal protein S6 kinase alpha-3 (Homo sapiens, UniProt P51812)", "IC50", "87 nM"],
  ["CC1(C)CNC(=O)c2cc3ccc(C(=O)Nc4cc(-c5ccccc5)no4)cc3n21", "Ribosomal protein S6 kinase alpha-3 (Homo sapiens, UniProt P51812)", "IC50", "15 nM"],
  ["CC[C@@H]1C(=O)N(c2cccc(F)c2)c2cnc(Nc3cc(F)c4[nH]ncc4c3)nc2N1C1CCCCC1", "Ribosomal protein S6 kinase alpha-3 (Homo sapiens, UniProt P51812)", "IC50", "≤ 100 nM"],
  ["C[C@H]1C(=O)N(c2ccccc2)c2cnc(Nc3ccc4[nH]ncc4c3)nc2N1C1CCCC1", "Ribosomal protein S6 kinase alpha-3 (Homo sapiens, UniProt P51812)", "IC50", "100 to 1000 nM"],
  ["CC1CCNC(=O)c2cc3ccc(C(=O)Nc4cnn(C(C)(C)C)c4)nc3n21 (stereo not shown)", "Ribosomal protein S6 kinase alpha-3 (Homo sapiens, UniProt P51812)", "IC50", "1.1 nM"],
  ["Cc1cc(NC(=O)c2ccc3cc4n(c3n2)CC(C)(C)CNC4=O)no1", "Ribosomal protein S6 kinase alpha-3 (Homo sapiens, UniProt P51812)", "IC50", "395 nM"],
  ["C[C@@H]1C(=O)N(c2cccc(C#N)c2)c2cnc(Nc3cc(F)c4[nH]ncc4c3)nc2N1C1CCC(C)(C)CC1", "Ribosomal protein S6 kinase alpha-3 (Homo sapiens, UniProt P51812)", "IC50", "≤ 100 nM"],
  ["COc1cc(Nc2ncc3c(n2)N(C2CCCCC2)[C@H](C)C(=O)N3c2cccc(C#N)c2)cc2cn[nH]c12", "Ribosomal protein S6 kinase alpha-3 (Homo sapiens, UniProt P51812)", "IC50", "100 to 1000 nM"],
  ["C[C@@H]1C(=O)N(c2cnc3ccccc3c2)c2cnc(Nc3ccc4[nH]ncc4c3)nc2N1C1CCCCC1", "Ribosomal protein S6 kinase alpha-3 (Homo sapiens, UniProt P51812)", "IC50", "≤ 100 nM"],
  ["C[C@@H]1C(=O)N(c2cnn(C)c2)c2cnc(Nc3ccc4[nH]ncc4c3)nc2N1C1CCCCC1", "Ribosomal protein S6 kinase alpha-3 (Homo sapiens, UniProt P51812)", "IC50", "≤ 100 nM"],
  ["C[C@@H]1C(=O)N(c2cccc(C#N)c2)c2cnc(Nc3ccc4[nH]ncc4c3)nc2N1C1CCCCC1", "Ribosomal protein S6 kinase alpha-3 (Homo sapiens, UniProt P51812)", "IC50", "≤ 100 nM"],
  ["O=C(Nc1cnn(Cc2ccccc2)c1)c1ccc2cc3n(c2c1)CC1(CCOCC1)CNC3=O", "Ribosomal protein S6 kinase alpha-3 (Homo sapiens, UniProt P51812)", "IC50", "900 nM"],
  ["C[C@@H]1C(=O)N(c2cccc(C#N)c2)c2cnc(Nc3ccc4c(c3)CNC4=O)nc2N1C1CCCCC1", "Ribosomal protein S6 kinase alpha-3 (Homo sapiens, UniProt P51812)", "IC50", "≤ 100 nM"],
  ["C[C@@H]1C(=O)N(c2ccc(N3CCCC3)nc2)c2cnc(Nc3cc(F)c4[nH]ncc4c3)nc2N1C1CCC(C)(C)CC1", "Ribosomal protein S6 kinase alpha-3 (Homo sapiens, UniProt P51812)", "IC50", "≤ 100 nM"],
  ["CC1C(=O)N(c2ccccc2)c2cnc(Nc3ccc4[nH]ncc4c3)nc2N1C1CCCC1 (stereo not shown)", "Ribosomal protein S6 kinase alpha-3 (Homo sapiens, UniProt P51812)", "IC50", "≤ 100 nM"]
]}
